Could you please report measured pKd for the items listed next?
Assay system: HMM-mfMSR1 (monkey MSR1 extracellular domain)
Sequence (as listed by the source): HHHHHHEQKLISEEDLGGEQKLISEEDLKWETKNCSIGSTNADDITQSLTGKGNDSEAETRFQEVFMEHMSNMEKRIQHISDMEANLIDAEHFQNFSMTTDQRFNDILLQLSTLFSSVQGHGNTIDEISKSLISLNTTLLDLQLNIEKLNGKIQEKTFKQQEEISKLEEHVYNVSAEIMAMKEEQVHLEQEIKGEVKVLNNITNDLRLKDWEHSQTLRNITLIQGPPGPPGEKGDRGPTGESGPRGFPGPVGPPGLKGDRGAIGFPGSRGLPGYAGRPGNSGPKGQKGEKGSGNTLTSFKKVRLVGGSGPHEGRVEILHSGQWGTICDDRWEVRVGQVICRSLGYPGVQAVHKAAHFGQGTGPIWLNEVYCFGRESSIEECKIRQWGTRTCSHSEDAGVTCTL
Method notes: Biacore surface plasmon resonance binding kinetics of anti-MSR1 mAbs, antibody-capture format
Study conditions: 25° C.; analyte HMM-mfMSR1; calculated from kinetic rates; NB = no binding observed
Method: Binding affinities and kinetic constants of human anti-MSR1 antibodies for different MSR1 reagents were determined by real-time surface plasmon resonance (Biacore 4000). […] The association rate (ka) and dissociation rate (kd) were determined by fitting the real-time binding sensorgrams to a 1:1 binding model with mass transport limitation using Scrubber 2.0c curve-fitting software. […]
Recall that pKd is obtained by taking minus log10 of the concentration measured in molar.

Req: Looking for the measured pKd of H1H21227N: "anti-MSR1 antibodies ... (21227N, 21231N, 21234N) were produced with the original human Fcγ portion"; "H1H" = human IgG1 Fc (antibody, V domains shown, human IgG1 Fc, "anti-MSR1 antibodies ; (21227N, 21231N, 21234N) were produced with the original human Fcγ portion"; "H1H" = human IgG1 Fc) VH: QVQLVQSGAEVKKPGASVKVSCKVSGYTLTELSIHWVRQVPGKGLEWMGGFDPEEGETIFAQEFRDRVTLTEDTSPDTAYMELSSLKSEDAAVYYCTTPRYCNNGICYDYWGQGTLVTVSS VL: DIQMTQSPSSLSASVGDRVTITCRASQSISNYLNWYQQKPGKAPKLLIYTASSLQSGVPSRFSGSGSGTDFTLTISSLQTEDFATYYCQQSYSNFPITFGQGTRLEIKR , can you help?
Resp: 10.46

Req: Try the molecule H1H21231N-N297Q: modified version of "21231N (H1H21231N-N297Q) anti-MSR1 antibodies" with "a N297Q single point mutation" (antibody, V domains shown) VH: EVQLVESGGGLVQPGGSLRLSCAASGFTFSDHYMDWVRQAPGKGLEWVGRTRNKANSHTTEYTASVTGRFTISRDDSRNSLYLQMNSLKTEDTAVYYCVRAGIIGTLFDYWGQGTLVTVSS VL: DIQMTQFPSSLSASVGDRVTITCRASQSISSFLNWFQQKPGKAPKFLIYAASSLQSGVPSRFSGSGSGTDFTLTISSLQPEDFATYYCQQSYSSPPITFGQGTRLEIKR
Resp: 9.42

Req: Try the molecule H1H21227N-N297Q: "modified versions of 21227N (H1H21227N-N297Q and H1H21227N-N297D)"; anti-MSR1 antibody "with a N297Q single point mutation" (antibody, V domains shown) VH: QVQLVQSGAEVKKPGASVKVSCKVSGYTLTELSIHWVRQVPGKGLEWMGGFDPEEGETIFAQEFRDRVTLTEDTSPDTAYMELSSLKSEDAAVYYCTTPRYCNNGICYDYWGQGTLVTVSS VL: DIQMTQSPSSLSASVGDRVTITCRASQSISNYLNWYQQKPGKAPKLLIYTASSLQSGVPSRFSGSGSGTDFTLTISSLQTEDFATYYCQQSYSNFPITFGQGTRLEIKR
Resp: 10.26

Req: Try the molecule H1H21231N: "anti-MSR1 antibodies ... (21227N, 21231N, 21234N) were produced with the original human Fcγ portion"; "H1H" = human IgG1 Fc (antibody, V domains shown, human IgG1 Fc, "anti-MSR1 antibodies ; (21227N, 21231N, 21234N) were produced with the original human Fcγ portion"; "H1H" = human IgG1 Fc) VH: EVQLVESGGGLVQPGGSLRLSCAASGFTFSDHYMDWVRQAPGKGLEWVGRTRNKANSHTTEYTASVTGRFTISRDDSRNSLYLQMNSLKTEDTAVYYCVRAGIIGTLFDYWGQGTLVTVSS VL: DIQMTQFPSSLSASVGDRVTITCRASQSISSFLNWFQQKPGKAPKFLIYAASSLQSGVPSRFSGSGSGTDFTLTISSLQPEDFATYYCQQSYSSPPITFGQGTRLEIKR
Resp: 9.63

Req: Try the molecule H1H21227N-N297D: "The 21227N antibody was also produced as a third version with a N297D mutation" (antibody, V domains shown) VH: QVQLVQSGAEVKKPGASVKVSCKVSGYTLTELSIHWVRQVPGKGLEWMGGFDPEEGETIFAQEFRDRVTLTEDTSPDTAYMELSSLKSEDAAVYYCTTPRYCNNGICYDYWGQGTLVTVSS VL: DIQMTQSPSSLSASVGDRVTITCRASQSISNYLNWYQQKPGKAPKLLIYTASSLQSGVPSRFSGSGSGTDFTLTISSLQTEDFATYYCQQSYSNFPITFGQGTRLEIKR
Resp: 10.52
